Reference for the values: ChEMBL document CHEMBL1148788

Target Or System: Neuronal acetylcholine receptor subunit alpha-7 (Homo sapiens)
Sequence (P36544 whole entry): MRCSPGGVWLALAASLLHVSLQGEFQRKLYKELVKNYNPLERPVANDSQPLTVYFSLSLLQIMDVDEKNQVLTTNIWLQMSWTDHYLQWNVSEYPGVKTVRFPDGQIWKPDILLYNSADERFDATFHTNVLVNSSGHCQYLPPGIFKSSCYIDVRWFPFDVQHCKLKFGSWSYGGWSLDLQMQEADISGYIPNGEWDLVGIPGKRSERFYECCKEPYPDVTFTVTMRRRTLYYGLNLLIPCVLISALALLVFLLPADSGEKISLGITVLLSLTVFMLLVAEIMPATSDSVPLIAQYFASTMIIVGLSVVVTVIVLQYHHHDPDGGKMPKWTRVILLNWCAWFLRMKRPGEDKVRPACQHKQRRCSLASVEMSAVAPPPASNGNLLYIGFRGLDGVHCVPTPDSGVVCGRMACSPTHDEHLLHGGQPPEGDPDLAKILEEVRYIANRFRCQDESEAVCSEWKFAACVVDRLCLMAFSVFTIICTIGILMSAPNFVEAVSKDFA
Measurement Protocol: Displacement of [3H]methyllycaconitine from human alpha-7 in tsA201 cells coexpressed with 5HT3A receptor
Format: cell-based
Condition Context: read-out: Ki
The following molecules are listed with their measured pKi values.
pKi field: float, defined as -log10 of concentration (mol/L).

>  <Molecule>
C[N+]12CC[C@@H]3[C@@H]4/C(=C\N5c6ccccc6[C@@]67CC[N+]8(C)CC9=CCO[C@H]([C@@H]([C@H]56)[C@H]9C[C@@H]78)N4c4ccccc4)[C@@H](C[C@@H]31)/C(=C\CO)C2.[I-].[I-] (some centres undefined)

>  <Test Result>
6.01

$$$$

Record CN(C)Cc1c2n(c3ccccc13)Cc1c(CN(C)C)c3ccccc3n1C2 . Reported pKi: 4.72

Record C1=CC([N+]23CC[C@@H]4[C@@H]5[C@@H]6[C@@H](OCC=C(C2)[C@@H]6C[C@@H]43)N2c3ccccc3[C@@]34CC[N+]6(C7C=CCCC7)CC7=CCO[C@H]([C@@H]([C@H]23)[C@H]7C[C@@H]46)N5c2ccccc2)CCC1.[Br-].[Br-] (some centres undefined) . Reported pKi: 6.14

Record O=[N+]([O-])c1ccc(C[N+]23CCC4[C@@H]5/C(=C\N6c7ccccc7[C@@]78CC[N+]9(Cc%10ccc([N+](=O)[O-])cc%10)CC%10=CCO[C@H]([C@@H]([C@H]67)[C@H]%10C[C@@H]89)N5c5ccccc5)[C@@H](C[C@@H]42)/C(=C\CO)C3)cc1.[Br-].[Br-] (some centres undefined) . Reported pKi: 6.96
